Hi there, I'd appreciate the recorded pKd for every entry that follows.
- TGT: T1, recombinant human αvβ8 (human, UniProt P06756 31-992; P26012 43-684)
- T1 construct: Soluble recombinant heterodimer used as analyte at 200 nM in BLI
- TEST_SUMMARY: bio-layer interferometry, IgG on anti-human Fab-CH1 tips, αvβ8 200 nM
The quantity pKd is defined as the negative base-10 logarithm of the molar concentration.

Problem: Name the reported pKd value associated with the binder ADWA16-3 (antibody, V domains shown) VH: EVQLVESGGGLVQPGGSLRLSCAVSGYIFSSYWVYWVRQAPGKGLEWVGYINPTTGYTEYADSVKGRFTISRDNSKNTLYLQMNSLRAEDTAVYYCATEGGNWEDYWGQGTLVTVSS VL: DIQMTQSPSSLSASVGDRVTITCRASQDISNYINWYQQKPGKAPKLLIYYTSRLYGGVPSRFSGSGSGTDFTLTISSLQPEDFATYYCQQFSELPRTFGQGTKVEIK
Result: 9.08

Problem: Any idea what pKd was measured for ADWA16-1 (antibody, V domains shown) VH: EVQLVESGGGLVQPGGSLRLSCAVSGYIFSSYWVYWVRQAPGKGLEWVGYINPTTGYTEYADSVKGRFTISRDNSKNTLYLQMNSLRAEDTAVYYCATEGGNWEDYWGQGTLVTVSS VL: DIQMTQSPSSLSASVGDRVTITCRASQDISNYINWYQQKPGKAPKLLIYYTSRLYSGVPSRFSGSGSGTDFTLTISSLQPEDFATYYCQQFSELPRTFGQGTKVEIK ?
Result: 9.14
